Test system: human recombinant GST-PAK1-KD protein (Homo sapiens, UniProt Q13153)
Construct: residues #249-545 of human PAK1, UniProtKP/Swiss Q13153; His6 (N); made in house; host or cells: Sf9 insect cells, pAcGP67 baculovirus expression vector
Sequence (Q13153 249-545): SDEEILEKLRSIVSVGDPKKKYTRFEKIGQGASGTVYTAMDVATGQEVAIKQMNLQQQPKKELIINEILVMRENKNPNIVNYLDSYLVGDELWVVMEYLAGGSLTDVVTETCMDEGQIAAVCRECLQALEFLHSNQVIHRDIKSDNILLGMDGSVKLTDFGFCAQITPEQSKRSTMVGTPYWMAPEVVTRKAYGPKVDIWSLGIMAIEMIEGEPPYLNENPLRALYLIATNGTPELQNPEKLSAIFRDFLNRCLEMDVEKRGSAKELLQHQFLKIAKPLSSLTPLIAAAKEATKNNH
Protocol description: GST-PAK1-KD (kinase domain) biochemical assay, microfluidic mobility shift
Run parameters: Table I, PAK1 Ki class; read-out: Ki
pKi: −log10 of the molar value.
pKi overview
Outcome measure: pKi

INSERT INTO results (compound, observed_result) VALUES
  ('Fc1cc(CNc2nccc(Nc3cc(C4CC4)[nH]n3)n2)c2cc[nH]c2c1', '> 7.30'),
  ('CC(C)(O)c1cc(Nc2cc(C3CC3)[nH]n2)nc(NCc2ccc3[nH]cnc3c2Cl)n1', '> 7.30'),
  ('Cc1ccc(CNc2nccc(Nc3cc(C4CC4)[nH]n3)n2)c2cc[nH]c12', '6.60 to 7.30'),
  ('Fc1ccccc1[C@H]1C[C@@H]1c1cc(Nc2ccnc(NCc3cccc4[nH]ccc34)n2)n[nH]1 (racemic)', '6.00 to 6.60'),
  ('F[C@H]1C[C@@H]1c1cc(Nc2ccnc(NCc3ccc4[nH]cnc4c3Cl)n2)n[nH]1', '> 7.30'),
  ('CC[C@@H](Nc1nccc(Nc2cc(C3CC3)[nH]n2)n1)c1ccc2[nH]cnc2c1', '6.00 to 6.60'),
  ('C[C@H](Nc1nccc(Nc2cc(C3CCC3)[nH]n2)n1)c1ccc2[nH]ccc2c1', '> 7.30'),
  ('C[C@H](Nc1nccc(Nc2cc(C3CC3(F)F)[nH]n2)n1)c1ccc2[nH]ccc2c1 (mixture of isomers)', '6.60 to 7.30'),
  ('C[C@H](Nc1nccc(Nc2cc([C@H]3C[C@H]3F)[nH]n2)n1)c1ccc2[nH]ccc2c1', '> 7.30');
